Tested on: MDA-MB-231
Experiment: Antiproliferative activity against human MDA-MB-231 cells by MTT assay
Format: functional, cell-based
pIC50: −log10 of the molar value.
Form field: pIC50 (one value per entry).

# Chemical smiles, Study target, pIC50
data = [
    ("COc1ccc2c(c1)C(C)(C)[C@H]1COc3ccc4c(=O)c(C)c(C)oc4c3[C@H]1N2", "MDA-MB-231", "< 4.00"),
    ("Cc1oc2c3c(ccc2c(=O)c1C)OC[C@H]1[C@@H]3Nc2ccccc2C1(C)C", "MDA-MB-231", "< 4.00"),
    ("Cc1coc2c3c(ccc2c1=O)OC[C@H]1[C@@H]3Nc2ccccc2C1(C)C", "MDA-MB-231", 4.03),
    ("Cc1ccc2c(c1)C(C)(C)[C@H]1COc3ccc4c(=O)c(C)coc4c3[C@H]1N2", "MDA-MB-231", "< 4.00"),
    ("Cc1oc2c3c(ccc2c(=O)c1-c1ccccc1)OC[C@H]1[C@@H]3Nc2ccccc2C1(C)C", "MDA-MB-231", "< 4.00"),
    ("Cc1coc2c3c(ccc2c1=O)OC[C@H]1[C@@H]3Nc2cc3ccccc3cc2C1(C)C", "MDA-MB-231", 5.03),
]
